Read-out: Pyruvate Dehydrogenase Kinase 4 (PDK4), PDK4 (gene 5166)
TEST_SUMMARY: LTEA_HepaRG_PDK4: Life Technologies and Expression Analysis (LTEA) Assay for Pyruvate Dehydrogenase Kinase 4 (PDK4) using HepaRG (AID 2283525)
SETTINGS: mRNA level, 48 h; actives raise or lower the signal
Calls of active or inactive are those of the source. The calls were made as follows: active = hit-call score of the fitted dose curve at least 0.9, where 1 is the maximum; inactive = score below 0.9.
Outcomes: active, inactive

# COMPOUND, ANSWER_LABEL
measured = [
    ("c1ccc2n[nH]nc2c1", "inactive"),
    ("Cc1ncc(CO)c(CO)c1O", "inactive"),
    ("O=c1c(-c2ccc(O)cc2)coc2cc(O)cc(O)c12", "inactive"),
    ("O=C(O)c1ccccc1C(=O)OCc1ccccc1", "active"),
    ("CCCCCCCC[Si](OCC)(OCC)OCC", "inactive"),
    ("CC1(C)NC(=O)N(c2ccc([N+](=O)[O-])c(C(F)(F)F)c2)C1=O", "active"),
    ("O=c1[nH]sc2ccccc12", "inactive"),
    ("CN1C(=O)CC[C@H]1c1cccnc1", "inactive"),
    ("O=CCCCC=O", "inactive"),
    ("CC/C(=C(/CC)c1ccc(O)cc1)c1ccc(O)cc1", "active"),
    ("Clc1cc(Cl)c2c(c1)N=C1CCCCCN1C2", "active"),
    ("CCCCCc1ccc(N)cc1", "inactive"),
    ("Cc1ccc(C(C)C)cc1", "inactive"),
    ("CCN(Cc1cccnc1)C(=O)c1cccc(Cl)c1[C@]1(C)C(=O)N(Cc2ccc(OC)cc2OC)c2ccc(Cl)cc21", "active"),
    ("O=C(O)Cn1c(=O)n(Cc2ccc(Br)cc2F)c(=O)c2ccc(Cl)cc21", "active"),
    ("Cc1cn([C@H]2C[C@H](N=[N+]=[N-])[C@@H](CO)O2)c(=O)[nH]c1=O", "inactive"),
    ("O=C=NCCCCCCN=C=O", "inactive"),
    ("CC[C@@H]1C[C@H](N(Cc2cc(C(F)(F)F)cc(C(F)(F)F)c2)C(C)=O)c2cc(C(F)(F)F)ccc2N1C(=O)OC(C)C", "inactive"),
    ("O=C(O)Cc1cc(I)c(Oc2ccc(O)c(I)c2)c(I)c1", "active"),
    ("COCC(C)OCC(C)OCC(C)O (stereo not given)", "inactive"),
    ("O=C(Nc1ccc(Cl)cc1)Nc1ccc(Cl)c(Cl)c1", "active"),
    ("CC(=O)N1CCN(c2ccc(OC[C@H]3CO[C@](Cn4ccnc4)(c4ccc(Cl)cc4Cl)O3)cc2)CC1", "active"),
    ("O=c1ccc2ccccc2o1", "inactive"),
    ("CN1C(=O)N(c2ccccc2Br)Cc2cnc(Nc3ccc4c(c3)OCC(CO)O4)nc21 (stereo not given)", "active"),
    ("Cc1cc2c(cc1C(F)(F)F)N(C(=O)Nc1ccc(Oc3cccnc3C)nc1)CC2", "inactive"),
]

###

Read-out: Tumor necrosis factor (Homo sapiens) (UniProt P01375)
Sequence (P01375 whole entry, looked up): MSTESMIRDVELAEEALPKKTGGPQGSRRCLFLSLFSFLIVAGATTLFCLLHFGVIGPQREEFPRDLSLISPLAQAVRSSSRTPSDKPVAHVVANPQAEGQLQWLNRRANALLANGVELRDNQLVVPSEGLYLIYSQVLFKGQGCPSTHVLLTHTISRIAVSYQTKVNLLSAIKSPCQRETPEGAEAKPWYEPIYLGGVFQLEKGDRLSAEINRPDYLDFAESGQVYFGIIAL
TEST_SUMMARY: BSK_LPS_TNFa: BioMAP Diversity Plus: LPS Assay for Tumour Necrosis Factor alpha (TNFa) Biomarker Activity (AID 2283085)
SETTINGS: primary human HUVEC with PBMC; actives raise or lower the signal
Active and inactive are the calls of the source. Rule for the calls: active = hit-call score of the fitted dose curve at least 0.9, where 1 is the maximum; inactive = score below 0.9.
Outcomes: active, inactive

# COMPOUND, ANSWER_LABEL
records = [
    ("NC(=O)c1nc(-c2cccc(-c3cc(F)ccc3OCC(F)(F)C(F)(F)F)c2)n[nH]1", "active"),
    ("C[C@]12CC[C@@H]3c4ccc(O)cc4CC[C@H]3[C@@H]1CC[C@H]2O", "inactive"),
    ("CC/C(=C(/CC)c1ccc(O)cc1)c1ccc(O)cc1", "active"),
    ("CN1C(=O)N(c2ccccc2Br)Cc2cnc(Nc3ccc4c(c3)OCC(CO)O4)nc21 (stereo unspecified)", "active"),
    ("CCCCCCCC[Si](OCC)(OCC)OCC", "inactive"),
    ("CCCCCCCCCCCCO", "active"),
]

###

TEST_SUMMARY: CCTE_Deisenroth_DEVTOX-GLR_Endo_CellCount: Viability Assessment in CCTE's DevTox GLR-Endo Assay, Deisenroth Lab (AID 2284420)
The source made the active and inactive calls. Rule for the calls: active = hit-call score of the fitted dose curve at least 0.9, where 1 is the maximum; inactive = score below 0.9.
Outcomes: Yes (active), No (inactive)

# RECORD_SMILES, ANSWER_LABEL
measured = [
    ("CO[C@H]1/C=C/O[C@@]2(C)Oc3c(C)c(O)c4c(O)c(c(/C=N/N5CCN(C)CC5)c(O)c4c3C2=O)NC(=O)/C(C)=C\\C=C\\[C@H](C)[C@H](O)[C@@H](C)[C@@H](O)[C@@H](C)[C@H](OC(C)=O)[C@@H]1C", "Yes"),
    ("CCCCOC(=O)c1ccc(O)cc1", "Yes"),
    ("OCCO", "No"),
    ("CC/C(=C(/CC)c1ccc(O)cc1)c1ccc(O)cc1", "Yes"),
]

###

Read-out: C-C motif chemokine 2 (Homo sapiens) (UniProt P13500)
TEST_SUMMARY: BSK_KF3CT_MCP1: BioMAP Diversity Plus: KF3CT Assay for Monocyte Chemoattractant Protein 1 (MCP1/CCL2) Biomarker Activity (AID 2283073)
SETTINGS: primary human keratinocytes with fibroblasts; actives raise or lower the signal
Calls of active or inactive are those of the source. How the source made its calls: active means hit-call score of the fitted dose curve at least 0.9, where 1 is the maximum; inactive means score below 0.9.
Outcomes: active, inactive

# MOLECULE, ANSWER_LABEL
measured = [
    ("CCO[Si](CCCNC(N)=O)(OCC)OCC", "inactive"),
    ("CCCCCCCCOc1ccc(C(=O)c2ccccc2)c(O)c1", "inactive"),
    ("CN1C(=O)CC[C@H]1c1cccnc1", "inactive"),
    ("NCc1cccc(C2CCN(C(=O)c3ccc(C#Cc4ccccc4F)o3)CC2)c1", "active"),
    ("COCC(C)OCC(C)OCC(C)O (stereo not given)", "inactive"),
    ("O=C1c2ccccc2C(=O)N1CCc1noc(-c2ccc(CN3CCCCCC3)s2)n1", "inactive"),
    ("O=CCCCC=O", "active"),
    ("C[C@]12CC[C@@H]3c4ccc(O)cc4CC[C@H]3[C@@H]1CCC2=O", "inactive"),
    ("Cc1cn([C@H]2C[C@H](N=[N+]=[N-])[C@@H](CO)O2)c(=O)[nH]c1=O", "inactive"),
    ("CC(C)(O)c1ccc(CNC(=O)c2cccnc2Oc2ccc3nonc3c2)cc1", "inactive"),
    ("CCCCCCCC[Si](OCC)(OCC)OCC", "inactive"),
    ("Cc1ncc(CO)c(CO)c1O", "inactive"),
    ("CC[C@H](NC(=O)c1cc(F)ccc1NS(=O)(=O)c1cccc2cccnc12)c1ccccc1", "inactive"),
    ("CN(C)c1ccc(C(=C2C=CC(=[N+](C)C)C=C2)c2ccc(N(C)C)cc2)cc1", "active"),
    ("CCCCCCCCN(C)CCCCCCCC", "inactive"),
    ("CCCCCCCCCC(=O)O", "inactive"),
    ("COc1cc(C(=O)NC2CCN(C)CC2)ccc1Nc1ncc2c(n1)N(C1CCCC1)CC(F)(F)C(=O)N2C", "active"),
    ("Clc1ccccc1C(c1ccccc1)(c1ccccc1)n1ccnc1", "active"),
    ("Cc1c2ccccc2c(C)c2c1ccc1ccccc12", "inactive"),
    ("Cc1cc(F)ccc1-c1cc(N2CC[C@@H](O)[C@H]2CO)ncc1N(C)C(=O)C(C)(C)c1cc(C(F)(F)F)cc(C(F)(F)F)c1", "active"),
    ("Cc1cccc2ccccc12", "inactive"),
    ("OC12N=C(c3ccccc3)SC1Cc1cc(Cl)ccc12 (stereo not given)", "inactive"),
    ("CCCC(=O)OCCC(C)C", "inactive"),
    ("CCCCOC(=O)CC(CC(=O)OCCCC)(OC(C)=O)C(=O)OCCCC", "inactive"),
    ("Cc1ccc(C(C)C)cc1", "inactive"),
]

###

Read-out: Cytochrome P450 3A7 (Homo sapiens) (UniProt P24462)
Sequence (P24462 whole entry, looked up): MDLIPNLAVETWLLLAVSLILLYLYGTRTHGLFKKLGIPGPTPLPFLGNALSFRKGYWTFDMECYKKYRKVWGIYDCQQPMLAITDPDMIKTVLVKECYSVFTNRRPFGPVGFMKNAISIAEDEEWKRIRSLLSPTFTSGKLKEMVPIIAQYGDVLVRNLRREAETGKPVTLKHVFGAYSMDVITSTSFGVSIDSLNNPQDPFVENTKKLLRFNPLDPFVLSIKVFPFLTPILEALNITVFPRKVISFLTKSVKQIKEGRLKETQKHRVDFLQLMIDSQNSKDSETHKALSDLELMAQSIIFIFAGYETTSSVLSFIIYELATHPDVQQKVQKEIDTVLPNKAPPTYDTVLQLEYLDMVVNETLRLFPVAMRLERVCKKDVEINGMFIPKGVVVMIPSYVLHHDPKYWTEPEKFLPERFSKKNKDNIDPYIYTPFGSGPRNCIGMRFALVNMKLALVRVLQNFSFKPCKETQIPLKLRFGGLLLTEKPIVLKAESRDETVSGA
TEST_SUMMARY: LTEA_HepaRG_CYP3A7: Life Technologies and Expression Analysis (LTEA) Assay for CYP3A7 using HepaRG (AID 2283492)
SETTINGS: mRNA level, 48 h; actives raise or lower the signal
Active and inactive are the calls of the source. The calls were made as follows: active = hit-call score of the fitted dose curve at least 0.9, where 1 is the maximum; inactive = score below 0.9.
Outcomes: active, inactive

# COMPOUND, ANSWER_LABEL
rows = [
    ("CN1C(=O)N(c2ccccc2Br)Cc2cnc(Nc3ccc4c(c3)OCC(CO)O4)nc21 (stereo unspecified)", "active"),
    ("CN(C)C(=O)C1(N2CCCCC2)CCN(CC[C@@]2(c3ccc(Cl)c(Cl)c3)CN(C(=O)c3ccccc3)CCO2)CC1", "active"),
    ("Cc1occc1C(=O)Nc1ccc(C(=O)N2CCC(F)(F)/C(=C\\C(=O)N3CCC(N4CCCCC4)CC3)c3ccccc32)cc1", "inactive"),
    ("O=c1ccc2ccccc2o1", "inactive"),
    ("OCCO", "inactive"),
    ("COc1ccc2cc(S(=O)(=O)N[C@H](CC(=O)N[C@H](Cc3ccc(CN4[C@H](C)CCC[C@@H]4C)cc3)C(=O)N(C)C(C)C)c3ccc4c(c3)OCO4)ccc2c1", "active"),
    ("NC(=O)c1nc(-c2cccc(-c3cc(F)ccc3OCC(F)(F)C(F)(F)F)c2)n[nH]1", "inactive"),
    ("CCCCCCCCN(C)CCCCCCCC", "inactive"),
    ("O=C(O)c1ccccc1C(=O)OCc1ccccc1", "inactive"),
    ("CC1(C)NC(=O)N(c2ccc([N+](=O)[O-])c(C(F)(F)F)c2)C1=O", "inactive"),
    ("CC(O)CC(C)(C)O (stereo unspecified)", "inactive"),
]

Origin of measurements: PubChem BioAssay (EPA / NIEHS)
